system: LOX IMVI; assay: NCI tumour cell line growth inhibition, 48 h
The source made the active and inactive calls. No stated cut-off is given here; in the data, active = GI50 up to about 1.1 µM and inactive = higher.
Outcome codes: active, inactive

MOLECULE	CATEGORY
COC(=O)c1c2c(cc3c1CC1(Cc4cc5c(c(C=O)c4C1)CCC5)C3)CCC2 (configuration not stated)	inactive
O=CN1CCN(c2ccc3ccc(O)nc3n2)CC1	inactive
Cc1c(F)c(N)c2c(=O)cc(-c3ccc(NC(=O)[C@@H](N)CCCCN)c(F)c3)oc2c1F	inactive
C=COC(=O)N1C2CCCC(Cl)(C(C)=O)C1CC2 (configuration not stated)	inactive
O=C(C/C=C/c1ccccc1)c1ccccc1	inactive
COC(=O)c1cnc(Cl)cn1	inactive
Cc1nc2ccc(S(=O)(=O)NS(=O)(=O)c3ccc(-c4ccccc4)cc3)cc2c(=O)n1NS(=O)(=O)c1ccc(-c2ccccc2)cc1	inactive
Cc1cc2nc3ccccc3n2c2nc(N)ccc12	inactive
CSc1nc(NCc2ccccc2)c2cnn(COCCO)c2n1	inactive
Nc1ccn(C2CC(O)C(COP(=O)(S)OC3CC(n4ccc(N)nc4=O)OC3CO)O2)c(=O)n1 (configuration not stated)	inactive
Cc1nc(C)c(C(=O)NNC(=O)C[N+](C)(C)C)cc1C(=O)NNC(=O)C[N+](C)(C)C	inactive
NS(=O)(=O)c1ccc(NC(=O)c2cccc3c(=O)c4ccccc4[nH]c23)cc1	inactive
SC1=C2CCCCCC2=NC2(CCCCCC2)S1	inactive
CC(NNC(=O)c1ccncc1)c1ccccc1 (configuration not stated)	inactive
Cn1nc2ccc3nccc(N(CCO)CCO)c3c2n1	inactive
C/C(=N\NC(=O)c1ccncc1)c1ccc2ccccc2c1O	active
NS(=O)(=O)c1nnc(NC(=O)C23CC4CC(CC(C4)C2)C3)s1	inactive
CN1CCC2(CC1)/C(=N/C1CCCCC1)NC(=S)N2c1ccccc1	inactive
COc1ccc(N2C(=O)C3c4[nH]c5c(C)cccc5c4C4CCC(C(C)C)CC4C3C2=O)cc1 (configuration not stated)	inactive
C[C@@H](NC1CCC[C@@H]1O)c1ccccc1 (some centres not stated)	inactive
CCc1[nH]c(=O)nc(N)c1-c1ccc(N2CCCCC2)c([N+](=O)[O-])c1	inactive
COc1c(C2=NC(C(C)C)CO2)ccc2ccccc12 (configuration not stated)	inactive
CC(C)(C)C(=O)c1c(O)c2ccccc2c2ccccc2c1=O	inactive
CC1(C)OCN(c2ccc(N3CCOCC3)cc2)Cn2c1nc1ccccc12	inactive
CCCCSC1=N/C(=C\c2ccc(N(C)C)cc2)C(NN)=N1	inactive
C=C1C[C@]23CC[C@@H]4C(CO)(CO)CC(=O)C[C@]4(C)[C@@H]2CC[C@H]1C3	inactive
CCOC(=O)Nc1ccc(S(=O)(=O)I)cc1.CCOC(=O)Nc1ccc(S(=O)(=O)I)cc1.CN(C=O)C1=C(N(C)C=O)C(N(C)C=O)=C(N(C)C=O)C(=O)C1=O	inactive
C=CCOc1ccc(N)c([N+](=O)[O-])c1	inactive
CN(CC(N)=O)C(=O)N(CCCl)N=O	inactive
Cc1cc2c(cc1C)C(=O)C1(C2)Cc2c(C)ccc(C)c2C1=O (configuration not stated)	inactive
C/C(CCn1[nH]c(=O)ccc1=O)=N\O	inactive
C=C1C(=O)C23C(O)C1CC[C@H]2C12CCCC(C)(COC(C)=O)[C@H]1[C@H](O)[C@]3(O)OC2 (some centres not stated)	inactive
CCOC(=O)Cc1[nH]c(C(=O)c2ccccc2)cc1C(=O)c1ccccc1	inactive
O=C(CCN1CCN2c3ccccc3CCC2C1)c1ccc(F)cc1 (configuration not stated)	inactive
O=c1cnn(C2OC(CO)C(O)C(F)C2O)c(=O)[nH]1 (configuration not stated)	inactive
COC(=O)C1Cc2cc3c(cc2C1)CCC3	inactive
CN(NC(=O)/C(=C/c1ccc(Cl)cc1)NC(=O)c1ccccc1)c1cn[nH]c(=O)c1Cl	inactive
O=C1/C(=c2\c3ccccc3n3c(=O)c4ccccc4nc23)Nc2ccccc21	inactive
O=C(/C(=C\c1ccc(Cl)cc1)c1ccccc1)c1ccccc1	inactive
O=C1N(C2CCCCC2)C(=O)N1C1CCCCC1	active
C/C(CC(O)(C(F)(F)F)C(F)(F)F)=N\NC(N)=O	inactive
COc1ccc(/C=C2/SC(c3c(O)ccc4ccccc34)N(NC(=O)CCCCCCCCC(=O)NN3C(=O)/C(=C\c4ccc(OC)c(OC)c4)SC3c3c(O)ccc4ccccc34)C2=O)cc1OC (configuration not stated)	active

All values here come from ChEMBL document CHEMBL1201862.
